- TARGET ENTITY: TBK1 (Homo sapiens (Human), UniProt Q9UHD2)
- Sequence (Q9UHD2 whole entry): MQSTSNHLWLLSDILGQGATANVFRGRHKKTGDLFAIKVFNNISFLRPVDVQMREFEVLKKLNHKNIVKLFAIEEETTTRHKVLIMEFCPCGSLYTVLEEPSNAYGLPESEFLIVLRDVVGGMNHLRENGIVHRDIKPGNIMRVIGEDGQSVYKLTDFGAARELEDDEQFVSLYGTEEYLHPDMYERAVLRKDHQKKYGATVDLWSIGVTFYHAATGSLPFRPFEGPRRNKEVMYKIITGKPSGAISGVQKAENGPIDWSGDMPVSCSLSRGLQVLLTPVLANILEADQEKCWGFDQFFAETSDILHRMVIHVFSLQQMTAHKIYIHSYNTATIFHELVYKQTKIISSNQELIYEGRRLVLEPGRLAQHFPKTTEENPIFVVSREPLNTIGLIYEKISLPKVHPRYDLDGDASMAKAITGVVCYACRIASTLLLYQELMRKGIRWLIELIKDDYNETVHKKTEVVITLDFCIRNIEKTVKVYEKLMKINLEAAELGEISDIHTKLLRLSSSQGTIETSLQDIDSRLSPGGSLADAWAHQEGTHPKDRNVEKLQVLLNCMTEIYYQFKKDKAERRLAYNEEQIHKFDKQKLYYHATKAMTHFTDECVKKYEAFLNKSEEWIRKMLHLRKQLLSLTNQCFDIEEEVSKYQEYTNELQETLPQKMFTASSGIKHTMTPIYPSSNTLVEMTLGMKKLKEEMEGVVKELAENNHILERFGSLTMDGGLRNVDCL
- METHOD SUMMARY: TBK1 TR-FRET enzymatic assay;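 further: phosphorylation of a biotinylated Ser/Thr peptide by purified full-length recombinant TBK1, read by TR-FRET after 240 min at 25 °C, IC50 is the geometric mean of at least four runs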
pIC50: −log10 of the molar value.
MEASURE NAME: pIC50

[[record]]
molecule = "C[C@H](O)C(=O)N1CC[C@H](Oc2ccc(-c3ncnc(Nc4ccc(N5CCOC[C@@H]5CO)cc4)n3)cc2C#N)[C@H](F)C1 [Example 387]"
measure_name = "pIC50"
assay_value = 8.52

[[record]]
molecule = "COc1cc(Nc2ncnc(-c3ccc(O[C@H]4CCN(C(=O)[C@H](C)O)C[C@H]4F)c(C#N)c3)n2)ccc1N1CCN(C2COC2)CC1 [Example 389]"
measure_name = "pIC50"
assay_value = 8.70

[[record]]
molecule = "COc1cc(Nc2ncnc(-c3ccc(O[C@H]4CCN(C(=O)[C@H](C)O)C[C@H]4F)c(C#N)c3)n2)ccc1N1CCC(N2CCOCC2)CC1 [Example 326]"
measure_name = "pIC50"
assay_value = 8.70

[[record]]
molecule = "C[C@H](O)C(=O)N1CC[C@H](Oc2ccc(-c3ncnc(Nc4ccc(N5CCN(C6COC6)[C@@H](CO)C5)cc4)n3)cc2C#N)C(F)(F)C1 [Example 469]"
measure_name = "pIC50"
assay_value = 8.70

[[record]]
molecule = "Cc1nnsc1COc1ccc(-c2ncnc(Nc3ccc(N4CCN(C5COC5)CC4)cc3)n2)cc1C#N [Example 284]"
measure_name = "pIC50"
assay_value = 6.32

[[record]]
molecule = "N#Cc1cc(-c2ncnc(Nc3ccc(N4CCN(C5COC5)CC4)cc3)n2)ccc1O[C@H]1CCN(C(=O)c2nc(N)n[nH]2)C[C@H]1F [Example 334]"
measure_name = "pIC50"
assay_value = 7.80


* * *

pIC50: −log10 of the molar value.
The listing below reports pIC50 for compounds tested on hJAK2 (Homo sapiens (Human)).
Sequence (O60674 whole entry): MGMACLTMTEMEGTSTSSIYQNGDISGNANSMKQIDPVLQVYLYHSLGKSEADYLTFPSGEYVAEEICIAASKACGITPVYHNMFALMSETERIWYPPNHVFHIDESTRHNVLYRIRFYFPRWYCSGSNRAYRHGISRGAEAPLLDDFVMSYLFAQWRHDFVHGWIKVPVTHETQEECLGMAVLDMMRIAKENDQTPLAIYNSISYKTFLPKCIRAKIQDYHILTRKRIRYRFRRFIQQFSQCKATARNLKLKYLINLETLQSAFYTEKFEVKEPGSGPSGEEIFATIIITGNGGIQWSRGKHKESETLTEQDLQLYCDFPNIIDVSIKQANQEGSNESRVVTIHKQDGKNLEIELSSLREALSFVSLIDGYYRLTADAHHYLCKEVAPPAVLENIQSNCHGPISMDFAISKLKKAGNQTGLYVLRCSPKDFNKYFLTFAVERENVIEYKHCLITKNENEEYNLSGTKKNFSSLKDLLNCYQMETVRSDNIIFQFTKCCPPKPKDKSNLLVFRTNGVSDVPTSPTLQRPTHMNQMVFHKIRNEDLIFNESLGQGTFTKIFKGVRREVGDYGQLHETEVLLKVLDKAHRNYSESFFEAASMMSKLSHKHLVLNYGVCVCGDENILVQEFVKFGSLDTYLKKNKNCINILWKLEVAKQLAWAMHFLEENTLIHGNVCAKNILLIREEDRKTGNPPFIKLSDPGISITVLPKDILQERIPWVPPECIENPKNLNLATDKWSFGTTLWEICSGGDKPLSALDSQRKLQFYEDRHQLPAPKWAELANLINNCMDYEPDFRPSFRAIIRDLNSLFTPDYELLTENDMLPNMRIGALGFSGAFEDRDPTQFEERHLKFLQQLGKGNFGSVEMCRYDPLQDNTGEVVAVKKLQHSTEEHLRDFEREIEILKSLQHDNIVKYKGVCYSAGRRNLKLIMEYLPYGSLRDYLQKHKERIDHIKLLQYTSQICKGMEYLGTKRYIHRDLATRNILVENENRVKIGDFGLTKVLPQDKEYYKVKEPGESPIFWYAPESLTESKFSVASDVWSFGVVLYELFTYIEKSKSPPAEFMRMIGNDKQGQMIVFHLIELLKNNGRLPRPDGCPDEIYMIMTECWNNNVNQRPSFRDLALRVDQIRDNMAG
MEASURE NAME: pIC50

[[record]]
compound = "C[C@@H](O)C(=O)N1CC[C@@H](Oc2ccc(-c3ncnc(Nc4ccc(N5CCN(C6COC6)CC5)cc4)n3)cc2C#N)C(F)(F)C1 (single isomer, unassigned) [Example 159]"
relation_symbol = "="
assay_value = 6.68

[[record]]
compound = "C[C@H](O)C(=O)N1CC[C@H](Oc2ccc(-c3ncnc(Nc4ccc(N5CCN(C6COC6)[C@@H](C)C5)cc4)n3)cc2C#N)[C@H](F)C1 [Example 264]"
relation_symbol = "="
assay_value = 6.53

[[record]]
compound = "CCn1cc(Nc2ncnc(-c3ccc(O[C@H]4CCN(C(=O)CO)C[C@H]4F)c(C#N)c3)n2)c(C)n1 [Example 569]"
relation_symbol = "≤"
assay_value = 6.00

[[record]]
compound = "CCn1cc(Nc2ncnc(-c3ccc(O[C@H]4CCN(C(=O)[C@H](C)O)C[C@H]4F)c(C#N)c3)n2)c(C)n1 [Example 568]"
relation_symbol = "≤"
assay_value = 6.00

[[record]]
compound = "CN1CCN(C(=O)c2ccc(Nc3ncnc(-c4ccc(O[C@H]5CCN(C(=O)CO)C[C@H]5F)c(C#N)c4)n3)cc2)CC1 [Example 119]"
relation_symbol = "="
assay_value = 6.47

[[record]]
compound = "N#Cc1cc(-c2ncnc(Nc3ccc(N4CCN(C5COC5)CC4)cc3)n2)ccc1O[C@H]1CCN(C(=O)Cc2ccn[nH]2)C[C@H]1F [Example 320]"
relation_symbol = "="
assay_value = 6.90

[[record]]
compound = "Cc1cc(Nc2ncnc(-c3ccc(O[C@H]4CCN(C(=O)[C@H](O)CO)C[C@H]4F)c(C#N)c3)n2)ccc1N1CCN(C2COC2)CC1 [Example 576]"
relation_symbol = "="
assay_value = 7.25

[[record]]
compound = "C[C@H](CO)C(=O)N1CC[C@H](Oc2ccc(-c3ncnc(Nc4ccc(N5CCN(C6COC6)CC5)cc4)n3)cc2C#N)[C@H](F)C1 [Example 124]"
relation_symbol = "="
assay_value = 6.17

[[record]]
compound = "CS(=O)(=O)N1CC[C@@H](Oc2ccc(-c3ncnc(Nc4ccc(N5CCN(C6COC6)CC5)cc4)n3)cc2C#N)C1 [Example 197]"
relation_symbol = "="
assay_value = 6.76

[[record]]
compound = "CC(C)(C)n1cc(Nc2ncnc(-c3ccc(O[C@H]4CCN(C(=O)[C@@H](O)CO)C[C@H]4F)c(C#N)c3)n2)cn1 [Example 419]"
relation_symbol = "="
assay_value = 6.64

[[record]]
compound = "Cc1cc(Nc2ncnc(-c3ccc(O[C@H]4CCN(C(=O)CC#N)C[C@H]4F)c(C#N)c3)n2)ccc1C1CCN(C)CC1 [Example 488]"
relation_symbol = "="
assay_value = 6.88

[[record]]
compound = "Cn1cncc1C(=O)N1CC[C@H](Oc2ccc(-c3ncnc(Nc4ccc(N5CCN(C6COC6)CC5)cc4)n3)cc2C#N)[C@H](F)C1 [Example 267]"
relation_symbol = "="
assay_value = 6.39

[[record]]
compound = "CC(C)[C@H](O)C(=O)N1CC[C@H](Oc2ccc(-c3ncnc(Nc4ccc(N5CCN(C6COC6)CC5)cc4)n3)cc2C#N)[C@H](F)C1 [Example 461]"
relation_symbol = "="
assay_value = 6.03

[[record]]
compound = "CC(C)(O)c1cc(Nc2ncnc(-c3ccc(O[C@H]4CCN(C(=O)CO)C[C@H]4F)c(C#N)c3)n2)ccn1 [Example 397]"
relation_symbol = "="
assay_value = 6.02

[[record]]
compound = "C[C@H]1OC(=O)N[C@@H]1C(=O)N1CC[C@H](Oc2ccc(-c3ncnc(Nc4ccc(N5CCN(C6COC6)CC5)cc4)n3)cc2C#N)[C@H](F)C1 [Example 523]"
relation_symbol = "="
assay_value = 6.09

[[record]]
compound = "CC1(C)CN(C(=O)CO)CCC1Oc1ccc(-c2ncnc(Nc3ccc(N4CCN(C5COC5)CC4)cc3)n2)cc1C#N (racemic) [Example 174]"
relation_symbol = "="
assay_value = 6.80

[[record]]
compound = "N#CCC(=O)N1CCC(Oc2ccc(-c3ncnc(Nc4ccc(N5CCN(C6COC6)CC5)cc4)n3)cc2C#N)CC1 [Example 44]"
relation_symbol = "="
assay_value = 6.35

[[record]]
compound = "C[C@H]1CN(C2COC2)CCN1c1ccc(Nc2ncnc(-c3ccc(O[C@H]4CCN(C(=O)CO)C[C@H]4F)c(C#N)c3)n2)cc1 [Example 244]"
relation_symbol = "="
assay_value = 6.72

[[record]]
compound = "N#Cc1cc(-c2ncnc(Nc3ccc(N4CCN(C5COC5)CC4)cc3)n2)ccc1O[C@@H]1CCN(C=O)C1 [Example 95]"
relation_symbol = "="
assay_value = 6.42

[[record]]
compound = "C[C@H](O)C(=O)N1CC[C@H](Oc2ccc(-c3ncnc(Nc4ccc(N5CCN(C)CC5)cc4)n3)cc2C#N)[C@H](F)C1 [Example 498]"
relation_symbol = "="
assay_value = 6.41

[[record]]
compound = "N#Cc1cc(-c2ncnc(Nc3ccc(N4CCN(C5COC5)CC4)cc3)n2)ccc1O[C@H]1CCN(C(=O)[C@@H]2C[C@@H](O)CN2)C[C@H]1F [Example 589]"
relation_symbol = "="
assay_value = 6.07

[[record]]
compound = "N#Cc1cc(-c2ncnc(Nc3ccc(N4CCN(C5COC5)CC4)cc3)n2)ccc1O[C@H]1CCN(C(=O)c2ccncc2N)C[C@H]1F [Example 390]"
relation_symbol = "="
assay_value = 7.43

[[record]]
compound = "Cn1cc(C(=O)N2CC[C@H](Oc3ccc(-c4ncnc(Nc5ccc(N6CCN(C7COC7)CC6)cc5)n4)cc3C#N)[C@H](F)C2)nn1 [Example 147]"
relation_symbol = "="
assay_value = 6.74

[[record]]
compound = "COc1cc(Nc2ncnc(-c3ccc(OC4CCOCC4)c(C#N)c3)n2)ccc1C(N)=O [Example 21]"
relation_symbol = "<"
assay_value = 6.00

[[record]]
compound = "C[C@H](O)C(=O)N1CC[C@H](Oc2ccc(-c3ncnc(Nc4ccc(N5CCN(C6COC6)CC5)c(OC(F)F)c4)n3)cc2C#N)[C@H](F)C1 [Example 395]"
relation_symbol = "="
assay_value = 6.92


Source listed as patent US10040781B2.
